Test system: HCC1569;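 also: TDF denotes transformed human dermal fibroblasts of mesenchymal origin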
assayRemarks: cell number relative to DMSO (% of DMSO); higher = more cells (less growth inhibition / toxicity)
runParameters: concentration: 10 µM; 24 h
Recorded measurements of cell number, one per entry

| compound | cell number |
| --- | --- |
| O=c1[nH]cc(F)c(=O)[nH]1 | 81.3 |
| CC(O)C(=O)C1=Nc2c([nH]c(N)nc2=O)NC1 (centres undefined) [Sepiapterin] | 105 |
| CCCCCCCCC=CCC=CCC=CCCCC(=O)NCCO [Mead ethanolamide] | 104 |
| N#CC(=C(N)Sc1ccc(N)cc1)c1ccccc1C(F)(F)F [MEK1/2 Inhibitor] | 100 |
| CCC=CCC=CCC=CCC=CCC=CCCC(=O)OC(COCCCCCCCCCCCCCCCC)COP(=O)([O-])OCC[N+](C)(C)C (centres undefined) | 105 |
| CCc1ccc(CCOc2ccc(CC3SC(=O)NC3=O)cc2)nc1 (centres undefined) | 102 |
| COc1ccc(C=CC(=O)Nc2ccccc2C(=O)O)cc1OC | 99.2 |
| O.O=P(O)(O)C(O)(Cn1ccnc1)P(=O)(O)O | 99.2 |
| COc1cc2c[n+](C)c3c4cc5c(cc4ccc3c2cc1OC)OCO5.[Cl-] | 85.3 |
